System: OATP1B1-expressing HeLa cells
conditions: read-out: IC50 HeLa B1
Numbered stars: 1 amine (or outer) side, 2 acyl side, 3 side chain; on linkers, the order of the positions; unused ones are H or OH. Bridge positions count the residues as written; N and C are the ends. Square brackets hold non-standard residues; d marks the D form. Peptide text beside a SMILES is read from it. Adda = CO[C@@H](Cc1ccccc1)[C@@H](C)/C=C(C)/C=C/[C@H](N[*:1])[C@H](C)C(=O)[*:2]; dAsp(3S-Me) = C[C@H](C(=O)[*:3])[C@@H](N[*:1])C(=O)[*:2]; d(γGlu) = O=C(O)[C@@H](CCC(=O)[*:2])N[*:1]; NMeDha = C=C(NC)C(=O)O
IC50 values for the compounds below.
Report only the number, with the unit nM understood.

These solved cases illustrate the format of a correct answer.
C=C1C(=O)N[C@H](C)C(=O)N[C@@H](CC(C)C)C(=O)N[C@@H](C(=O)O)[C@H](C)C(=O)N[C@@H](CCCNC(=N)N)C(=O)N[C@@H](/C=C/C(C)=C/[C@H](C)[C@H](Cc2ccccc2)OC)[C@H](C)C(=O)N[C@@H](C(=O)O)CCC(=O)N1C [compound 1, MC-LR, reference compound] (R[Adda][d(γGlu)][NMeDha][dA]L[dAsp(3S-Me)]-OH; lactam N-7): 1
C/C=C1/NC(=O)CC[C@H](C(=O)O)NC(=O)[C@@H](C)[C@H](/C=C/C(C)=C/[C@H](C)[C@H](Cc2ccccc2)OC)NC(=O)[C@H](Cc2ccc(O)cc2)NC(=O)C[C@H](C(=O)O)NC(=O)[C@H](CC(C)C)NC(=O)[C@@H](C)NC1=O [compound 6, [D-Asp^3,(E)-Dhb^7]MC-LY]: 0.47

Now look at this entry.
Prompt line: Param request: IC50 | system OATP1B1-expressing HeLa cells | item C=C1C(=O)N[C@H](C)C(=O)N[C@@H](CC(C)C)C(=O)N[C@@H](C(=O)O)[C@H](C)C(=O)N[C@@H](Cc2c[nH]c3ccccc23)C(=O)N[C@@H](/C=C/C(C)=C/[C@H](C)[C@H](Cc2ccccc2)OC)[C@H](C)C(=O)N[C@@H](C(=O)O)CCC(=O)N1C [compound 8, LW, reference compound] (W[Adda][d(γGlu)][NMeDha][dA]L[dAsp(3S-Me)]-OH; lactam N-7)
Response line: 0.22
